# STUDY SYSTEM: Adenosine receptor A2b (Homo sapiens, UniProt P29275)
# EXPERIMENT NOTES: Displacement of [3H]PSB-603 from human adenosine A2B receptor
pKi: −log10 of the molar value.
MEASURED ENDPOINT: pKi

// solved cases for pKi follow
{"TEST SMILES": "C#CCn1c(=O)c2c(nc3n2CCCN3c2cc(OC)cc(OC)c2)n(C)c1=O", "EXPERIMENTAL VALUE": "< 6.00"}
{"TEST SMILES": "Cn1c(=O)c2c(nc3n2CCCN3c2cc(Cl)cc(Cl)c2)n(C)c1=O", "EXPERIMENTAL VALUE": "< 6.00"}
{"TEST SMILES": "C#CCn1c(=O)c2c(nc3n2CCCN3c2ccc(F)cc2)n(C)c1=O", "EXPERIMENTAL VALUE": "< 6.00"}
{"TEST SMILES": "C#CCn1c(=O)c2c(nc3n2CCCN3C2CCC2)n(C)c1=O", "EXPERIMENTAL VALUE": 5.40}
{"TEST SMILES": "CCn1c(=O)c2c(nc3n2CCCN3CCN2CCCCC2)n(CC)c1=O", "EXPERIMENTAL VALUE": "< 6.52"}

# pKi (compound: C#CCn1c(=O)c2c(nc3n2CCCN3CCc2cc(OC)c(OC)c(OC)c2)n(C)c1=O ) is < 6.00

GET /value?item= Cn1c(=O)c2c(nc3n2CCCN3CC(=O)N2CCN(Cc3ccc(Cl)cc3)CC2)n(C)c1=O &field=pKi returns < 6.00

Documented pKi of Cn1c(=O)c2c(nc3n2CCCN3Cc2ccc(Cl)cc2)n(C)c1=O : < 6.00

The compound listed as Cn1c(=O)c2c(nc3n2CCCN3CC(=O)N2CCN(c3ccc(Cl)cc3)CC2)n(C)c1=O shows pKi equal to < 6.00

Value of pKi reported for the compound CCn1c(=O)c2c(nc3n2CCCN3CCc2cccc(OC)c2)n(CC)c1=O is < 6.00

* * *

# STUDY SYSTEM: Adenosine receptor A3 (Homo sapiens) (UniProt P0DMS8)
# Sequence (P0DMS8 whole entry): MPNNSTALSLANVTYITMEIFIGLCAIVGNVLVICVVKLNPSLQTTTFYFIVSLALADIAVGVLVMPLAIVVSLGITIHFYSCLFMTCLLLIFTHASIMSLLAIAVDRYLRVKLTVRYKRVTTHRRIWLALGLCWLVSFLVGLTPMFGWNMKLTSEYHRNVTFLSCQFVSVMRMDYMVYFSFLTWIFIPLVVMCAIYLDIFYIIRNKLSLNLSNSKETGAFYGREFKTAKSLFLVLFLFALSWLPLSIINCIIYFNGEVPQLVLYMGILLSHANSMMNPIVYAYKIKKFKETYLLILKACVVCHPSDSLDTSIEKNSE
# EXPERIMENT NOTES: Displacement of [3H]PSB-11 from human adenosine A3 receptor expressed in CHO cells relative to control
# Format: cell-based
# Parameters: concentration or dose not given beside the values
# CONDITION: concentration not given here
Response key: true (1) means inhibition >= 20%; false (0) means inhibition < 20%.

{"MOLECULE": "C#CCn1c(=O)c2c(nc3n2CCCN3CCc2ccc(OC)cc2)n(C)c1=O", "QUALITATIVE LABEL": "false (0)"}
{"MOLECULE": "CCn1c(=O)c2c(nc3n2CCCN3c2ccc(F)cc2)n(CC)c1=O", "QUALITATIVE LABEL": "true (1)"}
{"MOLECULE": "CCCn1c(=O)c2c(nc3n2CCCN3CCC(=O)N2CCN(Cc3ccc(Cl)cc3)CC2)n(CCC)c1=O", "QUALITATIVE LABEL": "true (1)"}
{"MOLECULE": "Cn1c(=O)c2c(nc3n2CCCN3CC(=O)N2CCN(Cc3ccc(C(F)(F)F)cc3)CC2)n(C)c1=O", "QUALITATIVE LABEL": "true (1)"}
{"MOLECULE": "Cn1c(=O)c2c(nc3n2CCCN3c2ccc(Cl)cc2)n(C)c1=O", "QUALITATIVE LABEL": "false (0)"}

[in] Confirm if inhibition reported for the molecule Cn1c(=O)c2c(nc3n2CCCN3CC(=O)N2CCN(c3ccc(Cl)cc3)CC2)n(C)c1=O is 20% or above.
[out] true (1)

[in] Given C#CCn1c(=O)c2c(nc3n2CCCN3CCc2ccccc2)n(C)c1=O , state whether its inhibition is at least 20%.
[out] false (0)

[in] Confirm if inhibition reported for the molecule Cn1c(=O)c2c(nc3n2CCCN3Cc2ccc(Cl)c(Cl)c2)n(C)c1=O is 20% or above.
[out] true (1)

[in] Is inhibition for CCCn1c(=O)c2c(nc3n2CCCN3CCC(=O)N2CCN(c3ccccc3)CC2)n(CCC)c1=O at or above 20%?
[out] true (1)

[in] Does inhibition meet or surpass 20% for CCn1c(=O)c2c(nc3n2CCCN3C2CCCCC2)n(CC)c1=O ?
[out] true (1)

[in] Check this molecule for inhibition at or above 20%: C#CCn1c(=O)c2c(nc3n2CCCN3CCc2cc(OC)c(OC)c(OC)c2)n(C)c1=O
[out] false (0)

[in] Say whether C#CCn1c(=O)c2c(nc3n2CCCN3C2CCCCC2)n(C)c1=O shows inhibition of 20% or more.
[out] true (1)

[in] Could you please find out whether C#CCn1c(=O)c2c(nc3n2CCCN3Cc2ccccc2)n(C)c1=O has inhibition that meets 20% or exceeds it?
[out] true (1)

[in] Does inhibition meet or surpass 20% for Cn1c(=O)c2c(nc3n2CCCN3CCc2ccc(Cl)c(Cl)c2)n(C)c1=O ?
[out] true (1)

[in] Please check the record C#CCn1c(=O)c2c(nc3n2CCCN3C2CCN(Cc3ccccc3)CC2)n(C)c1=O and state if its inhibition is at or above 20%.
[out] false (0)

[in] State whether the measured inhibition reaches 20%, counting equality as reaching it, for C#CCn1c(=O)c2c(nc3n2CCCN3CCc2ccc(O)cc2)n(C)c1=O
[out] true (1)

[in] Check the entry CCn1c(=O)c2c(nc3n2CCCN3CCN2CCCCC2)n(CC)c1=O : does inhibition equal or exceed 20%?
[out] false (0)

[in] Is reported inhibition greater than or equal to 20% here: Cn1c(=O)c2c(nc3n2CCCN3c2cc(Cl)cc(Cl)c2)n(C)c1=O
[out] true (1)

[in] Does the reported inhibition for CCCn1c(=O)c2c(nc3n2CCCN3CC(=O)N2CCN(Cc3ccccc3)CC2)n(CCC)c1=O fall at or above the 20% mark?
[out] true (1)

* * *

# STUDY SYSTEM: Adenosine receptor A2b (Homo sapiens) (UniProt P29275)
# Sequence (P29275 whole entry): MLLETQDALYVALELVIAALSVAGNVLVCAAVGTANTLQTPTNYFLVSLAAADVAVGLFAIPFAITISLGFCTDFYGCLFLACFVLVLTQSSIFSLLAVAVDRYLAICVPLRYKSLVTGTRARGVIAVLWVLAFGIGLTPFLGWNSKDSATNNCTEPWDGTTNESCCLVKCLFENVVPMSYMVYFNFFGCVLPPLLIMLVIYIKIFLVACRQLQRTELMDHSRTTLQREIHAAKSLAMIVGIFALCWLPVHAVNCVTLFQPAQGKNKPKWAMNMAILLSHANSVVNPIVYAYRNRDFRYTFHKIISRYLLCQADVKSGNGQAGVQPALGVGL
# EXPERIMENT NOTES: Displacement of [3H]PSB-603 from human adenosine A2B receptor relative to control
# Set-up: concentration or dose not given beside the values
# CONDITION: concentration not given here
Item-by-item account of inhibition
Please answer in the form of a number followed by its unit of measurement.

Answered cases to consult:
{"TEST SMILES": "Cn1c(=O)c2c(nc3n2CCCN3c2ccc(Cl)cc2)n(C)c1=O", "inhibition": "10%"}
{"TEST SMILES": "CCn1c(=O)c2c(nc3n2CCCN3CCc2ccc(OC)c(OC)c2)n(CC)c1=O", "inhibition": "15%"}
{"TEST SMILES": "CCCn1c(=O)c2c(nc3n2CCCN3CC(=O)N2CCN(c3ccccc3)CC2)n(CCC)c1=O", "inhibition": "6%"}
{"TEST SMILES": "Cn1c(=O)c2c(nc3n2CCCN3c2cc(Cl)cc(Cl)c2)n(C)c1=O", "inhibition": "11%"}

Record for CCn1c(=O)c2c(nc3n2CCCN3CCc2cccc(OC)c2)n(CC)c1=O under target or system Adenosine receptor A2b (Homo sapiens) (UniProt P29275): inhibition reported as 29%

* * *

# STUDY SYSTEM: MAO-B (amine oxidase [flavin-containing] B) (Homo sapiens)
# Sequence (P27338 whole entry): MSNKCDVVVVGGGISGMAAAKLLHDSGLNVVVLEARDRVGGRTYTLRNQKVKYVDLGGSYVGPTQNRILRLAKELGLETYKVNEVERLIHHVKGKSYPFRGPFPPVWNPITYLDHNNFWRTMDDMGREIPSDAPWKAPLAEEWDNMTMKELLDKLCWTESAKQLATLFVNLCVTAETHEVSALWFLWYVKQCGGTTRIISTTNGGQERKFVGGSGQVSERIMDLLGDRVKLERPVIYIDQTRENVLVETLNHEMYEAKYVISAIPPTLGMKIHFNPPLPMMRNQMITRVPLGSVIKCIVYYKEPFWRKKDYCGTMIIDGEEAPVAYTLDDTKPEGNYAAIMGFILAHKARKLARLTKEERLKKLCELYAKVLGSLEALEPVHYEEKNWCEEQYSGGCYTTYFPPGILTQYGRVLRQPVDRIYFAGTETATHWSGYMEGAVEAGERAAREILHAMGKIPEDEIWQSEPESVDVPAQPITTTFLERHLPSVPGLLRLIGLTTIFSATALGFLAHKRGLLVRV
# EXPERIMENT NOTES: Inhibition of human MAO-B at 10 uM relative to control
Reported inhibition at 10 µM values for a set of compounds
Value expressed in %; do not type the unit.

{"TEST SMILES": "C#CCn1c(=O)c2c(nc3n2CCCN3Cc2ccc(OC)cc2)n(C)c1=O", "STUDY SYSTEM": "MAO-B (amine oxidase [flavin-containing] B) (Homo sapiens)", "inhibition at 10 µM, %": 50}

Record CCCn1c(=O)c2c(nc3n2CCCN3CC(=O)N2CCN(c3ccccc3)CC2)n(CCC)c1=O . Reported inhibition at 10 µM: 46

Memo: Cn1c(=O)c2c(nc3n2CCCN3CC(=O)N2CCN(Cc3ccccc3)CC2)n(C)c1=O , reported inhibition at 10 µM: 55

Sure, the documented inhibition at 10 µM for C#CCn1c(=O)c2c(nc3n2CCCN3C2CCCCC2)n(C)c1=O is 26

Value of measured inhibition at 10 µM for the entry C#CCn1c(=O)c2c(nc3n2CCCN3CCc2ccc(O)cc2)n(C)c1=O : 37

// Cn1c(=O)c2c(nc3n2CCCN3CC(=O)N2CCN(c3ccccc3)CC2)n(C)c1=O : inhibition at 10 µM value = 40

Cn1c(=O)c2c(nc3n2CCCN3c2cc(Cl)cc(Cl)c2)n(C)c1=O has a reported inhibition at 10 µM of 58

compound Cn1c(=O)c2c(nc3n2CCCN3c2ccc(Cl)c(Cl)c2)n(C)c1=O , inhibition at 10 µM observed: 50

Reported inhibition at 10 µM for C#CCn1c(=O)c2c(nc3n2CCCN3c2cccc(OC)c2)n(C)c1=O was 36

Reported inhibition at 10 µM of CCn1c(=O)c2c(nc3n2CCCN3CCN2CCCCC2)n(CC)c1=O : 34
